The measured values listed here are drawn from patent US20140248666A1.

amount of binding (RU) overview
Target: T1, human sclerostin, mature form (signal peptide removed) (human, UniProt Q9BQB4 24-213)
T1 construct: 190 amino acid glycoprotein with four disulfide bonds (C1-C5, C2-C6, C3-C7, C4-C8); also called SOST; recombinant human sclerostin
T1 sequence: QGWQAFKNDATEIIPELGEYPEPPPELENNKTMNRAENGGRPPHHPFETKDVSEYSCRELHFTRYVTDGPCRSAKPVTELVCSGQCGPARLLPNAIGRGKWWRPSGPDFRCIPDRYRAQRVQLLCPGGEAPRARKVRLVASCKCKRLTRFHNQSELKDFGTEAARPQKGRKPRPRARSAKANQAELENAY
Assay: Biacore cross-blocking, human sclerostin on CM5 chip; mixed with competitor Ab-3, each 1.3 uM binding sites
Description: Human sclerostin was coupled to a CM5 Biacore chip using standard amine coupling chemistry to generate a sclerostin coated surface. 300 resonance units of sclerostin were coupled to the surface. 20 μL of the test mixture was passed over the sclerostin-coated chip at a flow rate of 10 μL/min and the amount of binding recorded. The chip was then treated with two 60 second pulses of 30 mM HCl to remove all of the bound antibody. […]
Expressed in RU, but write only the number.

Before answering, review these 3 worked examples.
>>> result("Antibody 19 (antibody, V domains shown, the signal peptide is not part of the antibody as tested; Parent of humanized Ab-20 and Ab-23; also called Ab-19) VH: EVQLQQSGPELVKPGASVKMSCKASGFTFTDYIMHWVKQKPGQGLEWIGYINPYNDDTEYNEKFKGKATLTSDKSSSTAYMDLSSLTSEGSAVYYCARSIYYYDAPFAYWGQGTLVTVSS VL: DIQMTQTTSSLSASLGDRVNISCRASQDISSYLNWYQQKPDGTVKLLIYSTSRLNSGVPSRFSGSGSGTDYSLTISNLAQEDIATYFCQQDIKHPTFGGGTKLELKR")
892
>>> result("Antibody 4 (antibody, mouse IgG1, kappa, V domains shown, Mature LC and HC; Parent of humanized Ab-5; also called Ab-4) VH: EVQLQQSGPELMKPGASVKMSCKASGYTFTDYNMHWVKQNQGKTLEWIGEINPNSGGAGYNQKFKGKATLTVDKSSTTAYMELRSLTSEDSAVYYCARLGYDDIYDDWYFDVWGAGTTVTVSS VL: DIQMTQITSSLSASLGDRVSISCRASQDISNYLNWYQQKPDGTFKLLIFYTSRLLSGVPSRFSGSGSGTDYSLTIYNLEQEDFATYFCQQGDTLPYTFGGGTKLEIKR")
869
>>> result("Antibody 13 (antibody, mouse IgG1, kappa, V domains shown, Mature LC and HC; Parent of humanized Ab-14; also called Ab-13) VH: EVQLQQSGPELVKPGASVKMSCKASGYTFTDYYMNWVKQSHGESLEWIGDINPYNDDTTYNHKFKGKATLTVDKSSNTAYMQLNSLTSEDSAVYYCARETAVITTNAMDYWGQGTSVTVSS VL: QIVLTQSPAIMSASPGEKVTMTCRASSSVTSSYLNWYQQKPGSSPKLWIYSTSNLASGVPARFSGSGSGTSYSLTISSVEAEDAATYYCQQYDFFPSTFGGGTKLEIKR")
432

Q. Data request, read-out amount of binding (RU), for Antibody A (antibody, mouse IgG1, kappa, V domains shown, Rabbit-mouse chimeric antibody; mature chains (signal peptides cleaved off); also called Ab-A; Mab-A) VH: QSLEESGGRLVTPGTPLTLTCTASGFSLSSYWMNWVRQAPGEGLEWIGTIDSGGRTDYASWAKGRFTISRTSTTMDLKMTSLTTGDTARYFCARNWNLWGQGTLVTVSS VL: AQVLTQTPASVSAAVGGTVTINCQSSQSVYDNNWLAWFQQKPGQPPKLLIYDASDLASGVPSRFSGSGSGTQFTLTISGVQCADAATYYCQGAYNDVIYAFGGGTEVVVKR
A. 946
